Tested on: P388 leukemia ip, CD2F1 mice, survival T/C
Test: NCI In Vivo Anticancer Drug Screen. Data for tumor model P388 Leukemia (intraperitoneal) in CD2F1 (CDF1) mice
Conditions: endpoint: median survival time; dose: 400.0 mg/kg/injection; schedule: Q01DX001 (ip); vehicle: saline; higher = longer survival
Inconclusive results and toxic doses are left out.
Listed here: items and their measured T/C.

Reference set (8 entries):
Name the recorded T/C for CS(=O)(=O)OCC(O)C(O)COS(C)(=O)=O (centres undefined) .
100 % of control

Name the recorded T/C for C1CCCN(N2CCOCC2)CC1 .
101 % of control

Name the recorded T/C for CCOP(=O)(Nc1ccc(C)cc1C)OCC .
100 % of control

Name the recorded T/C for COC(=O)C1CSC(c2c(COP(=O)(O)O)cnc(C)c2O)N1 (centres undefined) .
96 % of control

Name the recorded T/C for O=S(=O)(O)CCc1nn[nH]n1 .
101 % of control

Name the recorded T/C for CCCCNC(=O)N(CC)c1ccccc1 .
109 % of control

Name the recorded T/C for CCOP(=O)(Nc1ccccc1OC)OCC .
102 % of control

Name the recorded T/C for C=C1CC2(CC(C)CCC2C(=C)C)OC1=O (centres undefined) .
99 % of control

Now for another entry.
Name the recorded T/C for Cn1[nH]c(C(C)(C)O)cc1=O .
101 % of control
